Just for reference, ChEMBL document CHEMBL1144302 is where these values come from.

Measured Selectivity, listed per entry for reference.
Biological target: Cannabinoid receptor (Homo sapiens) (UniProt P34972+P21554)
Sequence (P21554 whole entry, looked up): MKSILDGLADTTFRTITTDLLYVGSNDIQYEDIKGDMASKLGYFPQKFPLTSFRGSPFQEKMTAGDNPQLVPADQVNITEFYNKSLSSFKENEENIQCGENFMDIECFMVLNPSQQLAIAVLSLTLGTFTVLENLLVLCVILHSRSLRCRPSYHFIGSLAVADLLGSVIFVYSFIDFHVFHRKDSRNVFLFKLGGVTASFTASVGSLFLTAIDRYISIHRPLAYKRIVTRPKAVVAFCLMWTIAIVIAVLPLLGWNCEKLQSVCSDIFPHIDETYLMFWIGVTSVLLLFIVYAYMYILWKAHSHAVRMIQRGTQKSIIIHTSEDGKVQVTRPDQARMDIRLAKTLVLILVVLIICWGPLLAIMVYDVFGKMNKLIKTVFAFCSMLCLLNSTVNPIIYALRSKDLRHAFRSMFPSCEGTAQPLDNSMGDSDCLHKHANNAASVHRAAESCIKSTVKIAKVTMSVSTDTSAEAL
Sequence (P34972 whole entry, looked up): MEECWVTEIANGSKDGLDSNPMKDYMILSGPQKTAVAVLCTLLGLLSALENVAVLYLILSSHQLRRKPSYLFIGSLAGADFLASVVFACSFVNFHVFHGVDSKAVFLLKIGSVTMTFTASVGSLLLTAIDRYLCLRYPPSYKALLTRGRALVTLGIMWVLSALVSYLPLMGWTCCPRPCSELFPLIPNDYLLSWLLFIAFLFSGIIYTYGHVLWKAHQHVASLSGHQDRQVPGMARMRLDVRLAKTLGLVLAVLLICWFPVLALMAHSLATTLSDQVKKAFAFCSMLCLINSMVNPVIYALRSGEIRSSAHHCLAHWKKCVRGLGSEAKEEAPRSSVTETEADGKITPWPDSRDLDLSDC
Experiment: Selectivity of cannabinoid receptor 2 over cannabinoid receptor 1
Type: protein assay
Test readout: Selectivity

Test smiles | Result
COc1ccc(S(=O)(=O)c2cc(OC)ccc2S(=O)(=O)c2ccc([C@H](C)NC(=O)Nc3ccc(F)cc3)cc2)cc1 | 15
COc1ccc(S(=O)(=O)c2cc(OC)ccc2S(=O)(=O)c2ccc([C@H](C)NC(=O)Cc3ccccc3)cc2)cc1 | 1.2
COc1ccc(S(=O)(=O)c2cc(OC)ccc2S(=O)(=O)c2ccc([C@H](C)NC(=O)c3ccc(Cl)c(Cl)c3)cc2)cc1 | 0.5
COc1ccc(S(=O)(=O)c2cc(OC)ccc2S(=O)(=O)c2ccc([C@H](C)NS(=O)(=O)Cc3ccccc3)cc2)cc1 | 0.5
